In this section, each of the molecules is paired with its reported Emax.
Molecular target: human 5-HT2C receptor (Homo sapiens, UniProt P28335)
Sequence (P28335 33-458): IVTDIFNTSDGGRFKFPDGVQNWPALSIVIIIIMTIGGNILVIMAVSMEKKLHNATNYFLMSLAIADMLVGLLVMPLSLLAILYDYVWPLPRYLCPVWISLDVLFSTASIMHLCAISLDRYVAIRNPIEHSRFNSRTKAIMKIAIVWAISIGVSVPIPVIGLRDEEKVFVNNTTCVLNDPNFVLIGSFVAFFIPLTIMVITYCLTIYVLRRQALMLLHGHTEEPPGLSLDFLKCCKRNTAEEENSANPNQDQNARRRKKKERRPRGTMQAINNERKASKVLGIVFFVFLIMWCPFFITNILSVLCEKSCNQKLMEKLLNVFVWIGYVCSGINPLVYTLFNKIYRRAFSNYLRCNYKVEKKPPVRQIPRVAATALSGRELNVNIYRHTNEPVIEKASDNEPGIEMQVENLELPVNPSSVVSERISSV
Assay: 5-HT2C receptor-stimulated calcium mobilization (FLIPR) in CHO cells;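 note: Fluo-3-AM fluorescence read on FLIPR every 1 s, agonist added after 10 baseline reads, response taken as peak minus lowest raw fluorescence count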
Type: cell-based
Settings: CHO, percentage of the response observed with a maximally effective concentration of 5-HT; read-out: 5-HT2C Function Emax (%)
Your answer should be a plain number; it is taken to be in %.

molecule	measuredResult
Cc1ccccc1-c1cccc2c1CC(CN)O2 (single isomer, unassigned; (+)) [Example 5]	90
CNCC1Cc2ccc(F)c(-c3ccccc3C)c2O1 (racemic) [Example 401]	90
CNCC1Cc2ccc(F)c(-c3ccccc3Cl)c2O1 (racemic) [Example 402]	90
CNCC1Cc2cc(F)cc(-c3cccc(OC)c3OC)c2O1 (single isomer, unassigned; (-)) [Example 568]	80
NCC1Cc2cc(Cl)cc(-c3c(Cl)cccc3Cl)c2O1 (racemic) [Example 263]	100
CN(C)CC1Cc2cc(F)cc(-c3c(Cl)cccc3Cl)c2O1 (racemic) [Example 237]	80
COc1cccc(-c2cc(Cl)cc3c2OC(CN)C3)c1OC (racemic) [Example 249]	90

Then there is this molecule:
Query :: Could you tell me which Emax is on file for Cc1ccccc1-c1cc(Cl)cc2c1OC(CN)C2 (racemic) [Example 95] ?
Result :: 100

====

Target: human 5-HT2C receptor (Homo sapiens)
Assay: 5-HT2C receptor-stimulated calcium mobilization (FLIPR) in CHO cells
Format: cell-based
Conditions: CHO, percentage of the response observed with a maximally effective concentration of 5-HT; read-out: 5-HT2C Function Emax (%)
Form field: Emax (one value per entry).
State the answer as a number, implicitly in %.

# annotated cases, reported Emax shown
compound	Emax [%]
CCNCC1Cc2cc(F)cc(-c3c(Cl)cccc3Cl)c2O1 (racemic)	90
COc1ccc(-c2cc(Cl)cc3c2OC(CN)C3)c(OC)c1 (racemic)	90
CNCC1Cc2cc(Cl)cc(-c3cccc(Cl)c3Cl)c2O1 (racemic)	70

Query :: Name the reported Emax value associated with the compound COc1ccc(-c2cccc3c2OC(CN)C3)c(OC)c1 (single isomer, unassigned; (-)) [Example 144]
Result :: 90

Query :: Now the compound CNCC1Cc2cccc(-c3ccccc3Cl)c2O1 (racemic) [Example 409]
Result :: 90

Query :: Same for CC(C)c1cccc2c1OC(CN)C2 (racemic)
Result :: 100

Query :: Param item: NCC1Cc2cc(Cl)cc(-c3ccoc3)c2O1 (racemic)
Result :: 90

Query :: Here is the next compound: Cc1c(Cl)cc(C(C)C)c2c1CC(CN)O2 (single isomer, unassigned; (-)) [Example 22]
Result :: 90

Query :: Continue with CNCC1Cc2cc(F)cc(-c3c(C)cccc3C)c2O1 (racemic) [Example 453]
Result :: 80

====

Molecular target: human 5-hydroxytryptamine-2C (h5-HT2C) receptor (Homo sapiens, UniProt P28335)
Construct: expressed in transfected cells; host or cells: CHO (Chinese Hamster Ovary) cells; membranes
Assay: [125I]DOI binding to membranes of CHO cells expressing the human 5-HT2C receptor
Details: [125I]DOI radioligand, CHO cell membranes, room temperature 60 min; read-out: 5-HT2C Affinity Ki
pKi: −log10 of the molar value.
Classify as follows. Reported pKi greater than or equal to 8: condition met. Reported pKi below: condition not met.

Query :: Given CNCC1Cc2cc(F)cc(-c3ccccc3C)c2O1 (single isomer, unassigned; (+)) [Example 442] , state whether its pKi is at least 8.
Result :: condition met

Query :: Next entry: CC1(CN)Cc2cc(Cl)cc(-c3ccsc3)c2O1 (racemic) [Example 113]
Result :: condition not met

These data points were gathered from patent US7435837B2.
